Every entry's value here was drawn from patent US8946266B2.

# System: Aβ42
# test: γ-secretase-modulating activity, Method 2: Aβ42 Alphalisa in supernatant of SKNBE2 cells carrying APP 695-wild type (Table 3b)
# Assay type: cell-based
# condition set: overnight
pIC50: −log10 of the molar value.
Please enter Satisfied where pIC50 is greater than or equal to 7, and Not satisfied where it is lower.

Please check the record Cc1cn(-c2ccc(-c3nc(Nc4ccc(F)cc4C(F)(F)F)n(C)n3)nc2)cn1 and state if its pIC50 is at or above 7. Not satisfied

Please check the record COc1cc(-c2nc(N3CCc4ccccc4C3)n(C)n2)ccc1-n1cnc(C)c1 and state if its pIC50 is at or above 7. Not satisfied

Please check the record COc1cc(-c2nc3n(n2)CCC[C@H]3c2ccccc2C(F)(F)F)ccc1-n1cnc(C)c1 and state if its pIC50 is at or above 7. Satisfied

Please check the record COc1cc(-c2nc(Nc3cccc(C(F)(F)F)c3F)n(C)n2)ccc1-n1cnc(C)c1 and state if its pIC50 is at or above 7. Satisfied

Please check the record COc1cc(-c2nc(N(C)c3ccc(F)cc3C(F)(F)F)nn2C)ccc1-n1cnc(C)c1 and state if its pIC50 is at or above 7. Not satisfied

Please check the record COc1cc(-c2nc(N3CCCC3)n(C(C)c3ccc(F)cc3)n2)ccc1-n1cnc(C)c1 (racemic) and state if its pIC50 is at or above 7. Not satisfied

Please check the record COc1cc(-c2nc(Nc3c(C)cccc3F)n(C)n2)ccc1-n1cnc(C)c1 and state if its pIC50 is at or above 7. Satisfied

Please check the record COc1cc(-c2nc(Nc3cc(F)c(F)c(F)c3)n(C)n2)ccc1-n1cnc(C)c1 and state if its pIC50 is at or above 7. Not satisfied

Please check the record COc1cc(-c2nc(N3CCCC(c4ccccc4)C3)n(C)n2)ccc1-n1cnc(C)c1 (racemic) and state if its pIC50 is at or above 7. Satisfied

====

# Test system: Aβ42
# test: γ-secretase-modulating activity, Method 2: Aβ42 Alphalisa in supernatant of SKNBE2 cells carrying APP 695-wild type (Table 3b)
# Type: cell-based
# condition set: overnight
// boundary case: IC50 equal to 40 nM maps to 0.0; strictly smaller maps to 1.0

// below: answered compounds
| compound | category |
| --- | --- |
| COc1cc(-c2nc(Nc3cccc(C(F)(F)F)c3)n(C(C)C)n2)ccc1-n1cnc(C)c1 [Compound 133] | 1.0 |
| CCOc1ccccc1Nc1nc(-c2ccc(-n3cnc(C)c3)c(OC)c2)nn1C [Compound 205] | 0.0 |
| COc1cc(-c2nc(Nc3cccc(F)c3OC)n(C)n2)ccc1-n1cnc(C)c1 [Compound 219] | 0.0 |

Bench note: check whether COc1cc(-c2nc(Nc3cc(Cl)ccc3C)n(C)n2)ccc1-n1cnc(C)c1 [Compound 174] shows IC50 below 40 nM 1.0

Bench note: check whether COc1cc(-c2nc(Nc3cccc(F)c3C)n(C)n2)ccc1-n1cnc(C)c1 [Compound 304] shows IC50 below 40 nM 0.0

Bench note: check whether COc1cccc(-c2nc(-c3ccc(-n4cnc(C)c4)c(OC)c3)nn2C(C)C)c1 [Compound 37] shows IC50 below 40 nM 0.0

Bench note: check whether COc1cc(-c2nc(Nc3cccc(C(F)(F)F)c3Cl)n(C)n2)ccc1-n1cnc(C)c1 [Compound 163] shows IC50 below 40 nM 0.0

Bench note: check whether COc1nc(-c2nc(N3CCCC(c4ccccc4)C3)n(C(C)C)n2)ccc1-n1cnc(C)c1.Cl (racemic) [Compound 80] shows IC50 below 40 nM 0.0

Bench note: check whether COc1nc(-c2nc3n(n2)CCC(C)C3c2ccc(F)cc2)ccc1-n1cnc(C)c1 (stereo not shown) [Compound 368] shows IC50 below 40 nM 0.0

Bench note: check whether COc1cc(-c2nc(Nc3cc(C(F)(F)F)ccc3F)n(CC(C)(C)O)n2)ccc1-n1cnc(C)c1 [Compound 136] shows IC50 below 40 nM 0.0

Bench note: check whether COc1cc(-c2nc3n(n2)CCCC3c2cc(C(F)(F)F)ccc2C)ccc1-n1cnc(C)c1 (stereo not shown) [Compound 264] shows IC50 below 40 nM 1.0

Bench note: check whether COc1ccc(C(F)(F)F)cc1Nc1nc(-c2ccc(-n3cnc(C)c3)c(OC)c2)nn1C [Compound 217] shows IC50 below 40 nM 1.0
